Target: human TYK2 I960V mutant (Homo sapiens, UniProt P29597, I960V)
Sequence (P29597 897-1176 I960V limits assumed): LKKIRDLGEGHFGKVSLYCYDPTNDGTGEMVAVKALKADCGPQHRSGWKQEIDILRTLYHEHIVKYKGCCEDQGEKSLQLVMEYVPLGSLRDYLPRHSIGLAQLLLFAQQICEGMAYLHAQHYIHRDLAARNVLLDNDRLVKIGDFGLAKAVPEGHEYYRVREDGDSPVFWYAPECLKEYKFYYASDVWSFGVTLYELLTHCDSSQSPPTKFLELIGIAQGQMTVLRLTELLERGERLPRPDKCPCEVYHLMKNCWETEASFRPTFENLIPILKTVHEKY
Assay: JAK Caliper enzyme end-point IC50 assay, human TYK2 I960V mutant
Details: read-out: Human TYK2 I960V IC50; ATP 1 mM; geometric mean ± SD
So I've got a bunch of compounds here, and I need their IC50 values.
Kindly provide the numeric value in nM only, without the unit symbol.

Value sought: IC50, system human TYK2 I960V mutant (Homo sapiens, UniProt P29597, I960V), item Cn1cc(Nc2ncc(Cl)c(N3C[C@H]4CC[C@@H](C3)N4C(=O)[C@@H]3CC3(F)F)n2)cn1 [Compound 29] . Result: 30

Value sought: IC50, system human TYK2 I960V mutant (Homo sapiens, UniProt P29597, I960V), item CCNC(=O)c1ncc(Nc2ncc(Cl)c(N3C[C@H]4C[C@@]4(NC(=O)C4CC4)C3)n2)cc1C [Compound 18] . Result: 538

Value sought: IC50, system human TYK2 I960V mutant (Homo sapiens, UniProt P29597, I960V), item CCNC(=O)c1ncc(Nc2ncc(F)c(N3C[C@H]4CC[C@@H](C3)N4CCC#N)n2)cc1C [Compound 17] . Result: 1220

Value sought: IC50, system human TYK2 I960V mutant (Homo sapiens, UniProt P29597, I960V), item Cc1cnc(Nc2cnn(CCO)c2)nc1N1CC2C[C@@]2(NC(=O)C2CC2)C1 (stereo partly shown) [Compound 20] . Result: 435
